- Test system: HL-60(TB) leukemia
- assay-overview: NCI tumour cell line growth inhibition, 48 h
readout: TGI

1) Cc1cc(O)cc(C)c1/C=C/c1cncc(C(=O)N(C)C)c1: > 25 µM
2) O=C(O)C(Cc1cccs1)C(=O)O: > 100 µM
3) C=C[C@H]1CN2CC[C@H]1C[C@@H]2[C@@H](O)c1ccnc2ccccc12: > 100 µM
4) CC(NCCS(=O)(=O)O)C(=O)O (stereo not given): > 100 µM
5) Cc1cc2occ(C)c(=O)c2c2c1OC(C)(C)S2: > 100 µM
